Reference source for all entries: the supplement of paper PMC6992640

- Test system: WHIM30 (cells of a triple-negative basal-like breast cancer xenograft);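 further: PDX cells carrying CMV promoter-driven luciferase, viability read as total photon flux per second by IVIS imaging following D-luciferin, vehicle control 0.1% DMSO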
- assay_comment: cell viability (% of vehicle); higher = less cytotoxic
- cond: 10 µM; 72 h
Counter-ions that a name gives are not always drawn.

{"compound": "CN(C)CCN(Cc1ccccc1)c1ccccn1.Cl [Tripelennamine HCl]", "cell viability": 94.2}
{"compound": "CC(C)OC(=O)C(C)NP(=O)(OCC1OC(n2ccc(=O)[nH]c2=O)C(C)(F)C1O)Oc1ccccc1 (stereo not drawn)", "cell viability": 120}
{"compound": "CCc1cccc2c3c([nH]c12)C(CC)(CC(=O)O)OCC3 (stereo not drawn)", "cell viability": 86}
{"compound": "CC12C=CC(=O)C=C1CCC1C3CC(O)C(O)(C(=O)CO)C3(C)CC(O)C12F (stereo not drawn)", "cell viability": 185}
{"compound": "CC1CCc2cc(F)cc3c(=O)c(C(=O)O)cn1c23 (stereo not drawn)", "cell viability": 135}
{"compound": "O=C(C=CC=Cc1ccc2c(c1)OCO2)N1CCCCC1", "cell viability": 112}
{"compound": "CC(CCC(=O)O)C1CCC2C3CCC4CC(O)CCC4(C)C3CCC12C (stereo not drawn)", "cell viability": 90.1}
{"compound": "COc1ccc(-c2ccc3cc(C(=O)O)ccc3c2)cc1C12CC3CC(CC(C3)C1)C2", "cell viability": 114}
{"compound": "Cc1nccn1CC1CCc2c(c3ccccc3n2C)C1=O.Cl.O.O (stereo not drawn) [Ondansetron hydrochloride dihydrate]", "cell viability": 68.2}
{"compound": "CC(C)C(N)C(=O)OCCOCn1cnc2c(=O)nc(N)[nH]c21.Cl (stereo not drawn) [Valaciclovir HCl]", "cell viability": 169}
{"compound": "CCCc1ncc(C[n+]2ccccc2C)c(N)n1.Cl.[Cl-] [Amprolium HCl]", "cell viability": 99.4}
{"compound": "Clc1ccc(C(Cn2ccnc2)OCc2ccc(Sc3ccccc3)cc2)c(Cl)c1.O=[N+]([O-])O (stereo not drawn) [Fenticonazole Nitrate]", "cell viability": 91.8}
{"compound": "CN(C)CCc1c[nH]c2ccc(Cn3cncn3)cc12.O=C(O)c1ccccc1 [Rizatriptan Benzoate]", "cell viability": 124}
{"compound": "Nc1nc(N)c2nc(-c3ccccc3)c(N)nc2n1", "cell viability": 122}
{"compound": "CCN1CCN(C(=O)NC(C(=O)NC2C(=O)N3C2SC(C)(C)C3C(=O)[O-])c2ccccc2)C(=O)C1=O.[Na+] (stereo not drawn) [Piperacillin Sodium]", "cell viability": 152}
{"compound": "CC(CN1c2ccccc2Sc2ccccc21)N(C)C (stereo not drawn) [Promethazine HCl]", "cell viability": 114}
{"compound": "Cl.O=C1Cc2cc(CCN3CCN(c4nsc5ccccc45)CC3)c(Cl)cc2N1 [Ziprasidone HCl]", "cell viability": 123}
{"compound": "Cl.O=C1CC2(CCCC2)CC(=O)N1CCCCN1CCN(c2ncccn2)CC1 [Buspirone HCl]", "cell viability": 90.4}
{"compound": "CCN(CCO)CCCOc1ccc2c(Nc3cc(CC(=O)Nc4cccc(F)c4)[nH]n3)ncnc2c1", "cell viability": 131}
{"compound": "CN1C(C(=O)Nc2ccccn2)=C(O)c2sc(Cl)cc2S1(=O)=O", "cell viability": 99.1}
{"compound": "CC1=C2N=C(C=C3N=C(C(C)=C4[N-]C(C)(C5N=C1C(C)(CCC(=O)NCC(C)OP(=O)([O-])OC1C(CO)OC(n6cnc7cc(C)c(C)cc76)C1O)C5CC(N)=O)C(C)(CC(N)=O)C4CCC(N)=O)C(C)(CC(N)=O)C3CCC(N)=O)C(C)(C)C2CCC(N)=O.[CH3-].[Co+3] (stereo not drawn)", "cell viability": 107}
{"compound": "Cl.O=C(c1ccc(OCCN2CCCCC2)cc1)c1c(-c2ccc(O)cc2)sc2cc(O)ccc12 [Raloxifene HCl]", "cell viability": 157}
{"compound": "CC(=O)C1CCC2C3CC=C4CC(O)CCC4(C)C3CCC12C (stereo not drawn)", "cell viability": 116}
